- assayed system: cIAP-1 BIR-3 (Homo sapiens, UniProt Q13490)
- Sequence (Q13490 266-352 limits assumed): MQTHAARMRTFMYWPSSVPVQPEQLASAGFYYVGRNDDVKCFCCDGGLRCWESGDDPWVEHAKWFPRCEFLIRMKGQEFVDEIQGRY
- method notes: Fluorescence polarization binding affinity to cIAP-1 BIR-3 (competition with AbuRPF-K(5-Fam)-NH2)
- condition set: 5 nM labeled peptide, 40 nM BIR3, 15 min at RT, pH 7.5; reported as ranges; read-out: KD (c-IAP-1 BIR3)
- Experimental: The binding affinities of the compounds are reported as a KD value (μM). […] Following incubation, the polarization values (mP) were measured on a Victor2V (available from PerkinElmer Life Sciences) using a 485 nm excitation filter and a 520 nm emission filter. […]
pKd: −log10 of the molar value.
Entries and their pKd values follow.

Guide cases for pKd, answers given:
- structure smiles: "CN[C@@H](C)C(=O)N[C@@H](CO)C(=O)N1CC[C@@H]2[C@H]1[C@@H](c1c[nH]c3cc(F)ccc13)CN2C1CCCC1"
  pKd: "> 7.00"
- structure smiles: "CN[C@@H](C)C(=O)N[C@H](C(=O)N1CC[C@@H]2[C@H]1[C@H](c1c[nH]c3cc(F)ccc13)CN2S(C)(=O)=O)C1CCCCC1"
  pKd: "6.00 to 7.00"

**Query** What value of pKd has been recorded for this entry: CN[C@@H](C)C(=O)N[C@H](C(=O)N1CC[C@@H]2[C@H]1[C@@H](c1c[nH]c3cc(F)ccc13)CN2Cc1nccn1C)C1CCCCC1
**Result** > 7.00

**Query** What value of pKd has been recorded for this entry: CN[C@@H](C)C(=O)N[C@H](C(=O)N1CC[C@@H]2[C@H]1[C@H](c1c[nH]c3cc(F)ccc13)CN2C1CCCC1)C(C)C
**Result** 6.00 to 7.00

**Query** What value of pKd has been recorded for this entry: CN[C@@H](C)C(=O)N[C@H](C(=O)N1CC[C@@H]2[C@H]1[C@@H](c1c[nH]c3ccc(F)cc13)CN2C(C)=O)C(C)(C)C
**Result** > 7.00

**Query** What value of pKd has been recorded for this entry: CN[C@@H](C)C(=O)N[C@H](C(=O)N1CC[C@@H]2[C@H]1[C@@H](c1c[nH]c3cc(F)ccc13)CN2C1CCCC1)[C@@H](C)O
**Result** 6.00 to 7.00

====

- System: SK-OV-3 cells
- method notes: Growth inhibition of ovarian cancer cell line SK-OV-3 (MTT assay, cell survival)
- Format: cell-based
- condition set: Homo sapiens, drug concentration that results in 50% cell survival, 72 hrs incubation, reported as ranges
Entries and their CC50 values follow.

- structure smiles: "CN[C@@H](C)C(=O)N[C@H](C(=O)N1CC[C@@H]2[C@H]1[C@@H](c1c[nH]c3cc(F)ccc13)CN2S(C)(=O)=O)[C@@H](C)OC"
  CC50: "< 100 nM"
- structure smiles: "CN[C@@H](C)C(=O)N[C@H](C(=O)N1CC[C@@H]2[C@H]1[C@@H](c1c[nH]c3cc(F)ccc13)CN2C(C)=O)[C@@H](C)O"
  CC50: "100 to 1000 nM"
- structure smiles: "CN[C@@H](C)C(=O)N[C@H](C(=O)N1CC[C@@H]2[C@H]1[C@@H](c1c[nH]c3cc(F)ccc13)CN2C1CCN(C)CC1)C1CCCCC1"
  CC50: "100 to 1000 nM"
- structure smiles: "CN[C@@H](C)C(=O)N[C@H](C(=O)N1CC[C@@H]2[C@H]1[C@@H](c1c[nH]c3cc(F)ccc13)CN2C(=O)C1CC1)C1CCCCC1"
  CC50: "< 100 nM"

As a next step, examine the compound that follows.
**Query** What value of CC50 has been recorded for this entry: CN[C@@H](C)C(=O)N[C@H](C(=O)N1CC[C@@H]2[C@H]1[C@H](c1c[nH]c3cc(F)ccc13)CN2C1CCCC1)[C@@H](C)O
**Result** > 10000 nM

Numbers sourced from patent US8399683B2.
